- SYSTEM_UNDER_TEST: muscarinic acetylcholine receptors
- MEASUREMENT_DESCRIPTION: inhibition of specific binding of ^3 H-Oxotremorine-M (^3 H-Oxo)
- PROTOCOL_CONDITIONS: ^3 H-Oxotremorine 1.0 nM, rat cortex, 30 min. at 25° C.
pIC50: −log10 of the molar value.
QUANTITY: pIC50

c1csc(COc2nsnc2O[C@@H]2CN3CCC[C@H]2C3)c1 (relative stereo)
9.00

A. FC(F)(F)Oc1ccc(COc2nsnc2O[C@@H]2CN3CCC[C@H]2C3)cc1 (relative stereo)
B. C1C[C@H]2CN(C1)C[C@H]2Oc1nsnc1OCCC1CC1 (relative stereo)
## Input Which numeric pIC50 is bigger, that of A or that of B ? Provide the label of your selected option as the answer.
## Output B

* * *

- SYSTEM_UNDER_TEST: muscarinic receptors (M1 -site, pirenzepine sensitive site) (Rattus norvegicus)
- Construct: from tissue; host or cells: cerebral cortex membranes of male Wistar rats
- Sequence (P08482 1-460): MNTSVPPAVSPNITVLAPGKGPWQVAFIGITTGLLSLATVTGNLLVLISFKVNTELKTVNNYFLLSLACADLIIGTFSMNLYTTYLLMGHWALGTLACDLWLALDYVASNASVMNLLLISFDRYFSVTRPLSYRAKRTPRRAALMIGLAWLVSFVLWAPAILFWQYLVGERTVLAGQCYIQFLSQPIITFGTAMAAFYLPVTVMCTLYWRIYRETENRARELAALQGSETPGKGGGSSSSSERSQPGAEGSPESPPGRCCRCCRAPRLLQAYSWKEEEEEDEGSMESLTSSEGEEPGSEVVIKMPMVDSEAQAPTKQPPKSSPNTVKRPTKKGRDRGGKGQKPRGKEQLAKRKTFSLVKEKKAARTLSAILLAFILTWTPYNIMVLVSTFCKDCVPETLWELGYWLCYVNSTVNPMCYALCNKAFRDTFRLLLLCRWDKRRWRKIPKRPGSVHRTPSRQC
- MEASUREMENT_DESCRIPTION: inhibition of ^3 HPRZ (pirenzepine, [N-methyl-^3 H]) binding to rat cerebral cortex membranes
- Set-up: species or system rat (male Wistar
QUANTITY: IC50 (nM)
Reply numerically in nM, unit not repeated.

Briefly, IC50 measured for FC(F)(F)C(F)(F)C(F)(F)COc1nsnc1O[C@@H]1CN2CCC[C@H]1C2 (relative stereo) : 1.6

* * *

- SYSTEM_UNDER_TEST: muscarinic acetylcholine receptors
- MEASUREMENT_DESCRIPTION: inhibition of specific binding of ^3 H-Oxotremorine-M (^3 H-Oxo)
- PROTOCOL_CONDITIONS: ^3 H-Oxotremorine 1.0 nM, rat cortex, 30 min. at 25° C.
QUANTITY: IC50 (nM)

Consider the following illustrative entries.
CCCCSc1nsnc1OC1CC2CCC1NC2 (racemic)
2.3
FC(F)(F)C(F)(F)C(F)(F)COc1nsnc1O[C@@H]1CN2CCC[C@H]1C2 (relative stereo)
2.8
CCCCSc1nsnc1OCCN(C)C
12
FC(F)(F)C(F)(F)CSc1nsnc1OC1CN2CCC1CC2 (racemic)
2.6
C1CC(COc2nsnc2OC2CN3CCC2CC3)C1 (racemic)
5.8

P. CC(C)(CCOc1nsnc1O[C@@H]1CN2CCC[C@H]1C2)c1ccccc1 (relative stereo)
Q. c1ccc(CCCSc2nsnc2O[C@H]2CN3CCC[C@@H]2C3)cc1 (relative stereo)
## Input Which numeric IC50 is bigger, that of P or that of Q ? Provide the label of your selected option as the answer.
## Output P
(P: 59 nM, Q: 1.9 nM)

1. C1CCC(CCCCOc2nsnc2O[C@@H]2CN3CCC[C@H]2C3)CC1 (relative stereo)
2. CCCCOc1nsnc1SCCN(C)C
## Input # compare IC50 for 1 vs 2 ; return the one with the smaller value Provide the label of your selected option as the answer.
## Output 1

Reference for the values: patent US5665745A
